experiment_summary: Aqueous solubility
Type: physicochemical
measurement_conditions: aqueous solution, aqueous buffer; pH 2.0
From the text: The compounds of the present invention may have improved aqueous solubility compared with telcagepant.
readout_label: solubility (mg/mL)
Your answer is read as mg/mL, so omit the unit and give the number.

Assign solubility to the following record: O=C(N[C@@H]1CC[C@@H](c2cccc(F)c2F)CN(CC(F)(F)F)C1=O)N1CCC(n2c(=O)[nH]c3ncccc32)CC1 [Telcagepant]
0.077

---

experiment_summary: Aqueous solubility
Type: physicochemical
measurement_conditions: aqueous solution, pH 7.3, aqueous buffer
readout_label: solubility (µg/mL)
Your answer is read as µg/mL, so omit the unit and give the number.

Assign solubility to the following record: O=C(N[C@@H]1CC[C@@H](c2cccc(F)c2F)CN(CC(F)(F)F)C1=O)N1CCC(n2c(=O)[nH]c3ncccc32)CC1 [Telcagepant]
31
